The reported numbers originate from patent US20160287666A1.

Biological target: human Nav1.6 (Homo sapiens, UniProt Q9UQD0)
Sequence (Q9UQD0 whole entry): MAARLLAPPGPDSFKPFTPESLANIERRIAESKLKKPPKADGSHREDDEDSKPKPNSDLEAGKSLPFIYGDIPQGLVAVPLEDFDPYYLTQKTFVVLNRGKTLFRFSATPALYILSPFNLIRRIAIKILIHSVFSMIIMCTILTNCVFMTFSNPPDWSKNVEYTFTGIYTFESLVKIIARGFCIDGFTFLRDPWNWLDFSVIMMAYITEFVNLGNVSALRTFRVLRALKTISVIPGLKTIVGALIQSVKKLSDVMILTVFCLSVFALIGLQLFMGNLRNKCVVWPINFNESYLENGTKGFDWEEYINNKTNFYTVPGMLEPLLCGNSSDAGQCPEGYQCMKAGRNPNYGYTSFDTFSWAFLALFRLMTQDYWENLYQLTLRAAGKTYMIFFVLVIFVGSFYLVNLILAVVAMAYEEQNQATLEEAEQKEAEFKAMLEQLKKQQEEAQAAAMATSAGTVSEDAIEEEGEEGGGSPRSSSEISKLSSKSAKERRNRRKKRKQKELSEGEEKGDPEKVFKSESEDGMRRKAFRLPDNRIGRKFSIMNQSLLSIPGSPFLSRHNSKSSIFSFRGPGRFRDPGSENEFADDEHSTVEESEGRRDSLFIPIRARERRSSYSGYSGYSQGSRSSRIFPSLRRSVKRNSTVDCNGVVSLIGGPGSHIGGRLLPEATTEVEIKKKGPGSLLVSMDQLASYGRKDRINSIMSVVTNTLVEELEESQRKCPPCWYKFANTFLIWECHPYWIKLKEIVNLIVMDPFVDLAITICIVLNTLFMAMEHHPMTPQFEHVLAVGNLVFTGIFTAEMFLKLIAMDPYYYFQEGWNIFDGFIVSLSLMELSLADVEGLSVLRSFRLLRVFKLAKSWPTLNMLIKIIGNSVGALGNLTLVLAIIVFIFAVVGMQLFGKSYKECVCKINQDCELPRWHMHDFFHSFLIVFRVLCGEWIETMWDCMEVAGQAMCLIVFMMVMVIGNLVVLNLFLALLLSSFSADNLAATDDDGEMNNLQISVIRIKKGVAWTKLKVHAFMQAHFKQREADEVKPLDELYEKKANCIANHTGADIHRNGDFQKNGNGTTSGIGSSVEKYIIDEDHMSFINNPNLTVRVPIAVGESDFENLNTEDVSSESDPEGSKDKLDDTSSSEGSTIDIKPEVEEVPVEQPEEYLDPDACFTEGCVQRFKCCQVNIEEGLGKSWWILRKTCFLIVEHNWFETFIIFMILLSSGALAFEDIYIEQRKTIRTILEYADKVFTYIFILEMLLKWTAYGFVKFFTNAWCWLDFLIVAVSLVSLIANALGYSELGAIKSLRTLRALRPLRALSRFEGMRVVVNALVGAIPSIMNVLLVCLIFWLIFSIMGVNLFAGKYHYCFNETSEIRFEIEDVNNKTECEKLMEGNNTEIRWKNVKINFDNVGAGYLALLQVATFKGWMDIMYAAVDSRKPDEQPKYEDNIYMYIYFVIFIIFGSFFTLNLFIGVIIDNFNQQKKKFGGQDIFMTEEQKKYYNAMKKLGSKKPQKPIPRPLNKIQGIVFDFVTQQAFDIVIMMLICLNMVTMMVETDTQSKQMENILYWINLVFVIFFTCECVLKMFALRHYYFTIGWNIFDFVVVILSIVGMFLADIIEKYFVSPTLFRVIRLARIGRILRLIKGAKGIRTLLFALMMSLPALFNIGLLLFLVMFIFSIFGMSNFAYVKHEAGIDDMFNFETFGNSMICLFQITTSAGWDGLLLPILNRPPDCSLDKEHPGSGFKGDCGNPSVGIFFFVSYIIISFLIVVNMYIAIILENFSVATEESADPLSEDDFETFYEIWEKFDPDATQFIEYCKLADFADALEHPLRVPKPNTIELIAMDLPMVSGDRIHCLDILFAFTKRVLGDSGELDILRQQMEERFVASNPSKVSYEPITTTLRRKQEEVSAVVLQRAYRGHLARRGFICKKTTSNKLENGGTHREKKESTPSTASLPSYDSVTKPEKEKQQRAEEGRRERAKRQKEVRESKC
Assay type: cell-based
Ends that are not written are not given here.
readout-type: selectivity towards Nav1.7 compared to recombinant Protoxin-II

• GPQCQKWMQTCDAERKCCEGFVCRLWCKKKLW-NH2 [NV1D2775-NH2] = improved selectivity
• GPQCQKWMQTCDAERKCCEGFSCTLWCKKKLW-NH2 [NV1D2974-NH2] = improved selectivity
• GPQCQKWMQTCDRERKCCEGFVCTLWCRKKLW-NH-methyl [NV1D3034-NH-methyl] = improved selectivity
• GPQCQKWMQTCDAERKCCEGFSCTLWCKKKLW-OH (cysteine pairing not given here) [NV1D2974] = improved selectivity
• GPQCQKWMQTCDRNRKCCEGFVCTLWCRKKLW-OH (cysteine pairing not given here) [NV1D3044] = improved selectivity
• GPACQKWMQTCDRNRKCCEGFVCTLWCRKKLW-OH (cysteine pairing not given here) [NV1D3541] = improved selectivity
• GPQCQKWMQTCDRERKCCEGFVCTLWCRKKLW-NH-butyl [NV1D3034-NH-butyl] = improved selectivity
• GPQCQKWMQSCDRERKCCEGFVCTLWCRKKLW-OH (cysteine pairing not given here) [NV1D3359] = improved selectivity
• Ac-QCQKWMQTCDAERKCCEGFSCTLWCKKKLW-NH2 [(-GP) N-Ac-NV1D2974-NH2] = improved selectivity
• GPQCQKWMQTCDRERKCCQGFVCTLWCRKKLW-OH (cysteine pairing not given here) [NV1D3388] = improved selectivity
• GPQCQKWMQTCDRTRKCCEGFVCTLWCRKKLW-NH2 [NV1D3368-NH2] = improved selectivity
• GPYCQKWMQTCDANRKCCEGFSCRLWCKKKLW-NH2 [NV1D3586-NH2] = improved selectivity
• GPACQKWMQTCDANRKCCEGFSCRLWCKKKLW-OH (cysteine pairing not given here) [NV1D3587] = improved selectivity
• GPQCQKWMQTCDRERKCCEGFVCTLWCRKKLW-NH2 [NV1D3034-NH2] = improved selectivity
• Ac-QCQKWMQTCDRERKCCEGFVCTLWCRKKLW-NH2 [(-GP) N-Ac-NV1D3034-NH2] = improved selectivity
• GPQCQKWMQTCDRTRKCCEGFVCTLWCRKKLW-OH (cysteine pairing not given here) [NV1D3368] = improved selectivity
• GPYCQKWMQTCDANRKCCEGFSCRLWCKKKLW-OH (cysteine pairing not given here) [NV1D3586] = improved selectivity
